- measurement-description: Bioavailability Test 2: blood concentration after i.v. administration to mice
- Type: in vivo, ICR female mice
- test-settings: iv, mouse, i.v. PBS solution of Mitomycin C, 15 min
measurement-type: concentration at 0.25 h (nM)

[
  {
    "compound": "CO[C@@]12[C@H](COC(N)=O)C3=C(C(=O)C(C)=C(N)C3=O)N1C[C@@H]1N[C@@H]12 [Mitomycin C]",
    "readout-unit": "nM",
    "endpoint-result": 2760
  }
]

---

- measurement-description: in vitro
- Type: in vitro ADME
- test-settings: rat, serum, Half life (t 1/2)
measurement-type: half-life (h)

[
  {
    "smiles-string": "CC(C)CCC[C@@H](C)[C@H]1CC[C@H]2[C@@H]3CC=C4C[C@@H](OC(=O)NCC(=O)Nc5ccn([C@@H]6O[C@H](CO)[C@@H](O)[C@@H]6O)c(=O)n5)CC[C@]4(C)[C@H]3CC[C@]12C",
    "endpoint-result": 22.6
  }
]

---

- measurement-description: Bioavailability Test 1: blood concentration after i.v. administration to rats
- Set-up: species or system SD male rats
- test-settings: rat, in vivo, iv

[
  {
    "smiles-string": "CO[C@@]12[C@H](COC(N)=O)C3=C(C(=O)C(C)=C(N)C3=O)N1C[C@@H]1N[C@@H]12",
    "concentration at 1 h, nM": 1040
  }
]

---

- measurement-description: Bioavailability Test 3: blood concentration after i.v. emulsion or aqueous solution in mice
- Type: in vivo, ICR female mice
- test-settings: mouse, iv, 0.8 umol/animal, i.v. emulsion (4 μmole/ml, 0.2 ml), 1 hr, read-out: Blood concentration of Mitomycin C Prodrug (Example 1)
measurement-type: concentration at 1 h (µM)

[
  {
    "smiles-string": "CO[C@@]12[C@H](COC(N)=O)C3=C(C(=O)C(C)=C(N)C3=O)N1C[C@H]1[C@@H]2N1C(=O)CNC(=O)O[C@H]1CC[C@@]2(C)C(=CC[C@H]3[C@@H]4CC[C@H]([C@H](C)CCCC(C)C)[C@@]4(C)CC[C@@H]32)C1",
    "measurement-type": "concentration at 1 h",
    "endpoint-result": 251
  }
]

---

- measurement-description: Bioavailability Test 2: blood concentration after i.v. administration to mice
- Format: in vivo, ICR female mice
- test-settings: iv, mouse, i.v. PBS solution of Mitomycin C, 1 hr

[
  {
    "smiles-string": "CO[C@@]12[C@H](COC(N)=O)C3=C(C(=O)C(C)=C(N)C3=O)N1C[C@@H]1N[C@@H]12",
    "concentration at 1 h, nM": 110
  }
]

---

- measurement-description: Conversion Test 1: conversion half life of prodrug to parent compound in rat serum
- Format: in vitro ADME
- test-settings: rat, serum, Half life (t 1/2)

[
  {
    "smiles-string": "CO[C@@]12[C@H](COC(N)=O)C3=C(C(=O)C(C)=C(N)C3=O)N1C[C@H]1[C@@H]2N1C(=O)CO[C@H]1CC[C@@]2(C)C(=CC[C@H]3[C@@H]4CC[C@H]([C@H](C)CCCC(C)C)[C@@]4(C)CC[C@@H]32)C1",
    "readout-unit": "h",
    "half-life": 9.3
  },
  {
    "smiles-string": "CO[C@@]12[C@H](COC(N)=O)C3=C(C(=O)C(C)=C(N)C3=O)N1C[C@H]1[C@@H]2N1C(=O)CNC(=O)O[C@H]1CC[C@@]2(C)C(=CC[C@H]3[C@@H]4CC[C@H]([C@H](C)CCCC(C)C)[C@@]4(C)CC[C@@H]32)C1",
    "readout-unit": "h",
    "half-life": 5.7
  }
]

---

- measurement-description: Bioavailability Test 3: blood concentration after i.v. emulsion or aqueous solution in mice
- Format: in vivo, ICR female mice
- test-settings: mouse, iv, 0.8 umol/animal, i.v. aqueous solution (4 μmole/ml, 0.2 ml), 4 hr, read-out: Blood concentration of Mitomycin C Prodrug (Example 1)
measurement-type: concentration at 4 h (µM)

[
  {
    "molecule": "CO[C@@]12[C@H](COC(N)=O)C3=C(C(=O)C(C)=C(N)C3=O)N1C[C@H]1[C@@H]2N1C(=O)CNC(=O)O[C@H]1CC[C@@]2(C)C(=CC[C@H]3[C@@H]4CC[C@H]([C@H](C)CCCC(C)C)[C@@]4(C)CC[C@@H]32)C1 [Example 1]",
    "endpoint-result": 73.9
  }
]

---

- measurement-description: Bioavailability Test 1: blood concentration after i.v. administration to rats
- Set-up: species or system SD male rats
- test-settings: rat, in vivo, iv

[
  {
    "smiles-string": "CO[C@@]12[C@H](COC(N)=O)C3=C(C(=O)C(C)=C(N)C3=O)N1C[C@@H]1N[C@@H]12",
    "concentration at 0.25 h [µM]": 5.54
  }
]

---

- measurement-description: Bioavailability Test 3: blood concentration after i.v. emulsion or aqueous solution in mice
- Format: in vivo, ICR female mice
- test-settings: mouse, iv, 0.8 umol/animal, i.v. aqueous solution (4 μmole/ml, 0.2 ml), 1 hr, read-out: Blood concentration of Mitomycin C Prodrug (Example 1)

[
  {
    "molecule": "CO[C@@]12[C@H](COC(N)=O)C3=C(C(=O)C(C)=C(N)C3=O)N1C[C@H]1[C@@H]2N1C(=O)CNC(=O)O[C@H]1CC[C@@]2(C)C(=CC[C@H]3[C@@H]4CC[C@H]([C@H](C)CCCC(C)C)[C@@]4(C)CC[C@@H]32)C1 [Example 1]",
    "concentration at 1 h (µM)": 186
  }
]

---

- measurement-description: Bioavailability Test 2: blood concentration after i.v. administration to mice
- Assay type: in vivo, ICR female mice
- test-settings: iv, mouse, i.v. PBS solution of Mitomycin C, 30 min

[
  {
    "molecule": "CO[C@@]12[C@H](COC(N)=O)C3=C(C(=O)C(C)=C(N)C3=O)N1C[C@@H]1N[C@@H]12 [Mitomycin C]",
    "concentration at 0.5 h, nM": 1570
  }
]

---

- measurement-description: Bioavailability Test 3: blood concentration after i.v. emulsion or aqueous solution in mice
- Format: in vivo, ICR female mice
- test-settings: mouse, iv, 0.8 umol/animal, i.v. emulsion (4 μmole/ml, 0.2 ml), 4 hr, read-out: Blood concentration of Mitomycin C Prodrug (Example 1)

[
  {
    "molecule": "CO[C@@]12[C@H](COC(N)=O)C3=C(C(=O)C(C)=C(N)C3=O)N1C[C@H]1[C@@H]2N1C(=O)CNC(=O)O[C@H]1CC[C@@]2(C)C(=CC[C@H]3[C@@H]4CC[C@H]([C@H](C)CCCC(C)C)[C@@]4(C)CC[C@@H]32)C1 [Example 1]",
    "concentration at 4 h [µM]": 81.6
  }
]
